Measured values drawn from the supplement of paper PMC9694430 for this set.

# Tested on: LOC_OS01G39600-cb002
# Assay Details: thermal shift delta Tm vs DMSO control; higher = stronger stabilization (binding);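 note: purified Escherichia coli-expressed rice kinase domain construct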
# Condition: 12.5 µM; protein concentration 2 µM
Assign a class from recorded thermal shift delta Tm; defined classes: b0: < 0.2 °C; b1: ≥ 0.2 °C and < 1 °C; b2: ≥ 1 °C

Prompt: Exercise: read the entry Cc1nc2c(-c3cnc(N)nc3)nc(N3CCOCC3)nc2n1C(C)C and state which class it falls under.
Response: b2

Prompt: Next up: Cc1cc(F)c(Nc2ncnc3cc(OCc4ccccc4)ccc23)cc1O
Response: b2

Prompt: Same for CC#CC(=O)Nc1ccc2ncnc(Nc3cccc(Br)c3)c2c1
Response: b0

Next:
Prompt: Pick a category. Item: Cc1cnc(NC(=O)Nc2cc(Br)c(C)cc2OC[C@@H]2CNCCO2)cn1
Response: b1

Prompt: What about Nc1ncnc2c1c(-c1cnc3[nH]ccc3c1)nn2C1CCCC1 ?
Response: b1

Prompt: Can you handle Cc1ccc(C(=O)Nc2ccc(CN3CCN(C)CC3)c(C(F)(F)F)c2)cc1C#Cc1cnc2[nH]ncc2c1 [GZD824 Dimesylate] next?
Response: b2

Prompt: What about CC(C)c1ccc2oc3nc(N)c(C(=O)O)cc3c(=O)c2c1 ?
Response: b2

Prompt: Try COc1cc2c(c(OC)c1OC)-c1c(cc3c(c1OC)OCO3)CC(C)C(C)C2 (centres undefined) [Schisandrin B (Sch B)] next.
Response: b0

* * *

# System: LOC_OS04G41100-cb001
# Sequence (as listed by the source): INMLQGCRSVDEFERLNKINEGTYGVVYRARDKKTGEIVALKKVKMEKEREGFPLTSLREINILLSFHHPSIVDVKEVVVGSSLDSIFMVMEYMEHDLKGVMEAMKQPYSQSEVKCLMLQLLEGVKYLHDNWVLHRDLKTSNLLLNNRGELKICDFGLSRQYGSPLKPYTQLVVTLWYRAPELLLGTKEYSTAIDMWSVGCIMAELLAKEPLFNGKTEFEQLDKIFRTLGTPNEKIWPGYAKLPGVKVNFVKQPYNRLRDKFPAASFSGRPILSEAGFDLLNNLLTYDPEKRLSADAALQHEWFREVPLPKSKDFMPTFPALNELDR
# Assay Details: thermal shift delta Tm vs DMSO control; higher = stronger stabilization (binding)
# Condition: 12.5 µM; protein concentration 2 µM
Where a name gives a salt, the structure may show the parent alone.
thermal shift delta Tm listing for selected compounds.
Give the value, in units of °C, as a plain number.

Worked cases, thermal shift delta Tm given:
Prompt: Data request, read-out thermal shift delta Tm, for CCNC(=O)Nc1ccc(-c2nc3c(c(N4CCOC[C@@H]4C)n2)CCN(C2COC2)C3)cc1
Response: 0.46

Prompt: Consider next the compound C=CC(=O)Nc1cccc(Oc2nc(Nc3ccc(N4CCN(C)CC4)cc3OC)ncc2Cl)c1 in the same way.
Response: 0.39

Further cases:
Prompt: Bench note: what thermal shift delta Tm did CO[C@@H](C)Cn1c(=O)n(C)c2cnc3ccc(-c4cncc(C(C)(C)O)c4)cc3c21 show?
Response: 0.38

Prompt: Ok, now FC(F)(F)c1ccc(Nc2nc3ccc(Oc4ccnc(-c5ncc(C(F)(F)F)[nH]5)c4)cc3[nH]2)cc1
Response: 1.09

Prompt: What would you report for CCCCNc1ncc(-c2ccc(CN3CCOCC3)cn2)c(NC2CCC(O)CC2)n1 (stereo not drawn) ?
Response: 0.46

Prompt: Another compound to look at: COc1cc2c(N3CCN(C(=O)Nc4ccc(OC(C)C)cc4)CC3)ncnc2cc1OCCCN1CCCCC1
Response: 0.92

Prompt: Further, for CN1CCCN(C(=O)c2cccc(-c3ccc(/C=C4/C(=O)Nc5ccc(Cl)cc54)o3)c2)CC1 ?
Response: 1.74

Prompt: Consider next the compound COc1cc2c3cc1Oc1c(OC)c(OC)cc4c1[C@@H](Cc1ccc(O)c(c1)Oc1ccc(cc1)C[C@@H]3N(C)CC2)N(C)CC4 [Berbamine (dihydrochloride)] in the same way.
Response: 0.23

* * *

# System: LOC_OS04G35114-cb001
# Assay Details: thermal shift delta Tm vs DMSO control; higher = stronger stabilization (binding)
# Condition: 12.5 µM; protein concentration 2 µM
The compounds listed here are annotated with their thermal shift delta Tm.
# number only, unit °C dropped from output

Prompt: Request body: readout thermal shift delta Tm, system LOC_OS04G35114-cb001, query CC1(C)CNc2cc(NC(=O)c3cccnc3NCc3ccncc3)ccc21 [Motesanib Diphosphate (AMG-706)] . Return the value.
Response: 0.51

Prompt: Same for N#Cc1cccc(-c2c[nH]c3ncnc(N4CCOCC4)c23)c1
Response: 5.02

Prompt: Next entry: COc1cc2c(cc1OC)[C@@H]1C(=O)c3ccc4c(c3O[C@@H]1CO2)C=CC(C)(C)O4
Response: 0.63

Further cases:
Prompt: Notebook entry, LOC_OS04G35114-cb001 assay: thermal shift delta Tm of COCCOc1cnc2ccn([C@H](C)c3nnc4c(F)cc(-c5cnn(C)c5)cn34)c(=O)c2c1 = ?
Response: 0.69

Prompt: Another compound to look at: COc1ncc(-c2ccc3nccc(-c4ccnnc4)c3c2)cc1NS(=O)(=O)c1ccc(F)cc1F
Response: 2.35

* * *

Below: a set of entries, each annotated with reported thermal shift delta Tm.
# Test system: LOC_OS04G41100-cb001
# Assay Details: thermal shift delta Tm vs DMSO control; higher = stronger stabilization (binding)
# Condition: 12.5 µM; protein concentration 2 µM
Write the value in °C as a bare number.

Prompt: Please give the measured thermal shift delta Tm for this compound: O=C(Nc1c[nH]nc1-c1nc2ccc(CN3CCOCC3)cc2[nH]1)NC1CC1
Response: 8.54

Prompt: Same lookup for CCOC(=O)c1cnc2ccc(-c3cncc(NS(=O)(=O)c4ccccc4)c3)cn12 , please.
Response: 0.65

Prompt: Input Cn1cc(-c2ccc(F)c(C(F)(F)F)c2)nc1C1CCN(c2ncnc3[nH]ncc23)CC1
Response: 0.15

Prompt: Could you do the same for CCCCCCCCCCCCCCCCCCOP(=O)([O-])OC1CC[N+](C)(C)CC1 , please?
Response: -0.69

Prompt: Next entry: CC(C)n1nc(-c2cc3cc(O)ccc3[nH]2)c2c(N)ncnc21
Response: 0.2

Further cases:
Prompt: I have this compound here, CCN(CC)CCNC(=O)c1c(C)[nH]c(/C=C2\C(=O)Nc3ccc(F)cc32)c1C [Sunitinib Malate] , and I need its recorded thermal shift delta Tm.
Response: 0.97

Prompt: Cc1cc(Nc2nc(N[C@@H](C)c3ccc(F)cc3)c(C#N)cc2F)n[nH]1 ?
Response: 1.28

Prompt: And then CN1CCN(C2CCN(C(=O)Nc3cc(Oc4ccc(NC(=O)C5(C(=O)Nc6ccc(F)cc6)CC5)c(F)c4)ccn3)CC2)CC1 [Golvatinib (E7050)] , what is it?
Response: 1.78

* * *

# Tested on: LOC_OS01G70970-cb002
# Assay Details: thermal shift delta Tm vs DMSO control; higher = stronger stabilization (binding)
# Condition: 12.5 µM; protein concentration 2 µM
Structures can show the parent of a compound that is named as a salt.
Measurement Label: thermal shift delta Tm (°C)
Answer format: numeric, °C implied, no suffix.

A selection of reference data follows.
Prompt: Recorded thermal shift delta Tm for N#Cc1ccc2ncnc(NCCc3ccccc3)c2c1 with LOC_OS01G70970-cb002, please?
Response: 0.3

Prompt: Same again, this time with O=c1ccc2ccc(O)c(O)c2o1
Response: 0.05

Prompt: Query COc1cccc2cc(-c3nc([C@H]4CC[C@H](C(=O)O)CC4)n4ncnc(N)c34)[nH]c12 next
Response: 0.4

Prompt: And what about the compound Cc1ccc(NC(=O)c2ccc(CN3CCN(C)CC3)cc2)cc1Nc1nc(-c2cccnc2)cs1 ?
Response: 0.24

Prompt: // next record CC(C)NC(=O)COc1cccc(-c2nc(Nc3ccc4[nH]ncc4c3)c3ccccc3n2)c1
Response: 0.76

Prompt: Now consider Cc1nc(-c2cn3c(n2)-c2ccc(-c4cnn(C(C)(C)C(N)=O)c4)cc2OCC3)n(C(C)C)n1 .
Response: 0.23

Prompt: How about this compound: NC[C@@](O)(c1ccc(Cl)cc1)c1ccc(-c2cn[nH]c2)cc1
Response: 0.29

Prompt: What do you have for C=CC(=O)N1CCC[C@@H](n2nc(-c3ccc(Oc4ccccc4)cc3)c3c(N)ncnc32)C1 ?
Response: 1.12

Further cases:
Prompt: Field: thermal shift delta Tm (LOC_OS01G70970-cb002). Entry: Cn1cc(-c2cnn3c(N)c(Br)c([C@@H]4CCCNC4)nc23)cn1
Response: 0.3

Prompt: Also, Cc1cc(O)c(-c2ccc([C@@H](C)CN)cc2)c2c1[nH]c(=O)c1sccc12 [OTS514 hydrochloride] please.
Response: 0.57

Prompt: Then what about the compound O=c1c(-c2ccc(O)cc2)coc2cc(O)cc(O)c12 ?
Response: 0.33

Prompt: Thanks! And COc1cc2ncnc(Nc3cccc(Cl)c3F)c2cc1OC(=O)N1CCN(C)C[C@H]1C ?
Response: 0.55

* * *

# Tested on: LOC_OS01G10900-cb004
# Assay Details: thermal shift delta Tm vs DMSO control; higher = stronger stabilization (binding)
# Condition: 12.5 µM; protein concentration 2 µM
Item-by-item account of thermal shift delta Tm
Express it in °C; write the number only.

Prompt: I would be grateful if you could share the reported thermal shift delta Tm for CN1CC[C@H](c2c(O)cc(O)c3c(=O)cc(-c4ccccc4Cl)oc23)[C@H](O)C1 [Flavopiridol (Alvocidib)] .
Response: 0.16

Prompt: Repeat with C=CC(=O)Nc1cccc(Sc2nc(Nc3ccc(N4CCN(C)CC4)cc3)ncc2Cl)c1
Response: 5.27

Prompt: Let us now turn to CCCCOc1c(C(=O)c2c(F)cc(C)cc2F)c[nH]c2nncc1-2
Response: 1.09

Prompt: Subsequent entry: Cn1ncc(Cl)c1-c1cc(C(=O)N[C@H](CN)Cc2ccc(F)c(F)c2)oc1Cl
Response: -0.33

Prompt: For CN1CCN(c2ccc(Nc3cc(-c4cccc(-n5ccc6cc(C7CC7)cc(F)c6c5=O)c4CO)cn(C)c3=O)nc2)CC1 then?
Response: 0.34
